Data credit: patent US20230272011A1

target: T1, mouse serum albumin (mouse, UniProt P07724 25-608); test: SPR (Biacore T200), albumin amine-coupled to CM5, Affimer analyte, pH 7.4
T1 construct: also called MSA
T1 sequence (P07724 25-608 limits assumed): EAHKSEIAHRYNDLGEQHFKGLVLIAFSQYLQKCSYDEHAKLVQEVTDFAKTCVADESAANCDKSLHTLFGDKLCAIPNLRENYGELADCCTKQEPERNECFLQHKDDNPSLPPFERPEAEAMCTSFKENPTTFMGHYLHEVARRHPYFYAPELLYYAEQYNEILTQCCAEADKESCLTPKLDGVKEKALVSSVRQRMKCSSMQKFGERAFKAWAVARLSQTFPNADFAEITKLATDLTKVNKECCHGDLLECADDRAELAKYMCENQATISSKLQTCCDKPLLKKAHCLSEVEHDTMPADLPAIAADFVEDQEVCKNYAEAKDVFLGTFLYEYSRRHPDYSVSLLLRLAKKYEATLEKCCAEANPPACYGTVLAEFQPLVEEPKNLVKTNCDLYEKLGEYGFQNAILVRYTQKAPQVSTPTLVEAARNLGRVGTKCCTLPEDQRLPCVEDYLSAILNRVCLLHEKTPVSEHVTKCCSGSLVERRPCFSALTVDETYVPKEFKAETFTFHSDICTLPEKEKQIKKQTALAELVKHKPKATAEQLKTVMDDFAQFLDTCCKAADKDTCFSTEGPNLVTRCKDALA
METRIC_NAME: koff
Quick note: unit goes after the number.

Request: Would you mind telling me what koff value was observed for HSA-18 (designed binder, also called HSA-18 monomer) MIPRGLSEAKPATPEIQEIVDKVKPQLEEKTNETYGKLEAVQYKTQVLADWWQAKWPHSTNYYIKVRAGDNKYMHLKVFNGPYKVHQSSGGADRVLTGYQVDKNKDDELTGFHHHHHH ?
Response: 0.0742 s⁻¹

Request: Look up koff: HSA-20 (designed binder) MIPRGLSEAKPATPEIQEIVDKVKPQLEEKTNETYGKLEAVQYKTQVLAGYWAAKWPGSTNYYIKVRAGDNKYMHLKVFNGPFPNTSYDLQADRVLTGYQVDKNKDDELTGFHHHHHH
Response: 0.0981 s⁻¹

Request: Reported koff for HSA-41 (designed binder, also called HSA-41 parent; HSA-41 AH parent) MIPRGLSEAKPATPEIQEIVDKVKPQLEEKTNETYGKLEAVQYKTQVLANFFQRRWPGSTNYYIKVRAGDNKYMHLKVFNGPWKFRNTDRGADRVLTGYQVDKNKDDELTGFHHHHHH : what is it?
Response: 0.139 s⁻¹

Request: Recorded koff for HSA-36 (designed binder) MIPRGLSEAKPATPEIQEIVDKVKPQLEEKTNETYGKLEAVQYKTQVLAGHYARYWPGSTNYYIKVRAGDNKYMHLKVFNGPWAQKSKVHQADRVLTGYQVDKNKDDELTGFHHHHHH , please?
Response: 0.15 s⁻¹
